- measured.target: human capsaicin receptor (Homo sapiens)
- Sequence (Q8NER1 whole entry): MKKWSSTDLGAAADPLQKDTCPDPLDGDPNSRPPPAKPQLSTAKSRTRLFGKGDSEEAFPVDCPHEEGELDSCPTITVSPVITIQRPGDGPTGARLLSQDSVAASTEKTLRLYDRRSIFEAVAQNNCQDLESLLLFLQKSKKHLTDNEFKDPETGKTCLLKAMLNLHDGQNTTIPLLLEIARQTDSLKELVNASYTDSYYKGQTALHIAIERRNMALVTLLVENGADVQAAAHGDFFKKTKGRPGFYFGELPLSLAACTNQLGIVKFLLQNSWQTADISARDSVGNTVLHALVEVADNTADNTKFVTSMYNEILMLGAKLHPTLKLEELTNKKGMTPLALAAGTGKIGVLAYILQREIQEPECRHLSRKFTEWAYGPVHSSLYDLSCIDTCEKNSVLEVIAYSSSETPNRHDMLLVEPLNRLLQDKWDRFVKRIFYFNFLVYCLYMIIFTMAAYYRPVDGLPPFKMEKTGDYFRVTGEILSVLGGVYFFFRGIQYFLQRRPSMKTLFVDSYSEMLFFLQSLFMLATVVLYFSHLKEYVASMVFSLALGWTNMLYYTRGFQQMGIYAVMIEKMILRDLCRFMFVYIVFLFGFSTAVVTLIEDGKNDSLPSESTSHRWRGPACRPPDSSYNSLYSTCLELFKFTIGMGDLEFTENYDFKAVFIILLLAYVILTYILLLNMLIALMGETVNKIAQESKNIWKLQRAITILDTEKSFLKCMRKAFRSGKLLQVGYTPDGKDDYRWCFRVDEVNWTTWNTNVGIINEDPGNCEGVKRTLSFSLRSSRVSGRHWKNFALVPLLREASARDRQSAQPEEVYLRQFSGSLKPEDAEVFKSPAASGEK
- test.summary: Capsaicin receptor binding assay ([3H]RTX competition, membranes of VR1-transfected HEK293 cells)
- assay.context: determined as described in Example 5; read-out: Ki
pKi: −log10 of the molar value.
metric: pKi

- compound: "Cc1nc(Nc2ccc(C(C)(C)C(=O)O)cc2)c2ccc(-c3ncccc3C)nc2n1 [Compound 19]"
  reported.result: "> 6.00"
- compound: "CC(C)(C)c1ccc(Nc2nc(N3CCC(C(=O)O)CC3)nc3nc(-c4ncccc4C(F)(F)F)ccc23)cc1 [Compound 44]"
  reported.result: "> 6.00"
- compound: "CC(C)(C)c1ccc(Nc2nc(COP(=O)(OCc3ccccc3)OCc3ccccc3)nc3cc(-c4ncccc4C(F)(F)F)ccc23)cc1 [Compound 6]"
  reported.result: "> 6.00"
- compound: "COCc1nc2nc(-c3ncccc3C(F)(F)F)ccc2c(Nc2ccc(C(F)(F)F)cc2)c1C(=O)O [Compound 45]"
  reported.result: "> 6.00"

Numbers sourced from patent US7432275B2.
